Just for reference, paper PMC5700166 is where these values come from.

# test.system: GST-Hu-p50 (Homo sapiens, UniProt P19838 7-356)
# Sequence (P19838 7-356): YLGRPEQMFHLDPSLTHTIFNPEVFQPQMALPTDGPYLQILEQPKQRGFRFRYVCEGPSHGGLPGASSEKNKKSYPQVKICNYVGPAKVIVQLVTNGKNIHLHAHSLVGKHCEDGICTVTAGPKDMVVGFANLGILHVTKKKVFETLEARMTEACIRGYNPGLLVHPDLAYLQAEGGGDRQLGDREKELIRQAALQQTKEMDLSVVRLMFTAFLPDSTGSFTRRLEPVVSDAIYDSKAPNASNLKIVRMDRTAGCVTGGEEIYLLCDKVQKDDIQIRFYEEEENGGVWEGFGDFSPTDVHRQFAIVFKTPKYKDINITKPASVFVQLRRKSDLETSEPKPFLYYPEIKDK
# experiment.notes: protein-binding microarray (PBM); PBM: ~300 nM protein, 6 mM HEPES pH 7.8, 80 mM KCl, 0.5 mM EDTA, 0.5 mM EGTA, 6% glycerol, 35 ng/ul poly-dIdC, 1% milk, 1 h, room temperature; Ap Aiptasia and Nv Nematostella (sea anemones) / Co Capsaspora / Aq Amphimedon (sponge) / Dm Drosophila / Hu human; RHD is the Rel homology domain; high values mean tight binding
# reported.conditions: dsDNA, one strand shown
Lab note: anything with binding signal at or over 4 z-score counts as YES; the rest go in NO.

Examples with answers:
CCGATTAACATCAGGGGGAGGTATGATGTTAATCGGGTCTTGATTCGCTTGACGCTGCTG    YES
CCGATTAACATCAGGGGAATCACTGATGTTAATCGGGTCTTGATTCGCTTGACGCTGCTG    YES

Is binding signal for "CCGATTAACATCATGTATGCCCCTGATGTTAATCGGGTCTTGATTCGCTTGACGCTGCTG" at or above 4 z-score?
NO

What do you get for "CCGATTAACATCAGGGGTAACCCTGATGTTAATCGGGTCTTGATTCGCTTGACGCTGCTG" ?
NO

Follow-up entry: "CCGATTAACATCAGGGTAATACCTGATGTTAATCGGGTCTTGATTCGCTTGACGCTGCTG"
NO

Again, but for "CCGATTAACATCACCGGAAATTCTGATGTTAATCGGGTCTTGATTCGCTTGACGCTGCTG"
NO

Now give it for "CCGATTAACATCAATAAACCCCCTGATGTTAATCGGGTCTTGATTCGCTTGACGCTGCTG" too.
YES

Cool, now "CCGATTAACATCAGGGGATATAATGATGTTAATCGGGTCTTGATTCGCTTGACGCTGCTG"
YES

Now try "CCGATTAACATCACGATTTCCCCTGATGTTAATCGGGTCTTGATTCGCTTGACGCTGCTG" .
YES
